Values compiled from patent US9775844B2.

Assay: Oral PK in the rat LPS studies (free plasma concentration)
Format: in vivo
Conditions: plasma, oral, p.o. 0.5 mg/kg, 5.5h (approximately 4 hours post LPS challenge), read-out: Free Plasma Conc
Method: This study also includes assessment of the exposure to the compounds in plasma and lung tissues. Ref C is budesonide p.o. The compound was administered p.o. and about 1 hour later, LPS was administered intra-tracheally and plasma was collected. After about 5 hours, plasma and bronchoalveolar lavage samples were collected.
readout_kind: concentration at […]

I'd like to know its concentration at […]. The compound in question is C[C@H](NC(=O)c1c(N)nn2cccnc12)c1cc2cccc(C#Cc3cnn(C)c3)c2c(=O)n1-c1ccccc1 2.6 nM

====

Items are presented alongside their recorded IC50.
biological target: PI3K-γ in RAW264.7 macrophages (Mus musculus (Mouse), UniProt Q9JHG7); test: Raw264.7 p110 γ assay (PI3K-γ selective cellular assay, C5a-stimulated phospho-AKT); type: cell-based; settings: phospho-AKT; read-out: Raw264.7 p110 γ assay IC50
Sequence (Q9JHG7 whole entry): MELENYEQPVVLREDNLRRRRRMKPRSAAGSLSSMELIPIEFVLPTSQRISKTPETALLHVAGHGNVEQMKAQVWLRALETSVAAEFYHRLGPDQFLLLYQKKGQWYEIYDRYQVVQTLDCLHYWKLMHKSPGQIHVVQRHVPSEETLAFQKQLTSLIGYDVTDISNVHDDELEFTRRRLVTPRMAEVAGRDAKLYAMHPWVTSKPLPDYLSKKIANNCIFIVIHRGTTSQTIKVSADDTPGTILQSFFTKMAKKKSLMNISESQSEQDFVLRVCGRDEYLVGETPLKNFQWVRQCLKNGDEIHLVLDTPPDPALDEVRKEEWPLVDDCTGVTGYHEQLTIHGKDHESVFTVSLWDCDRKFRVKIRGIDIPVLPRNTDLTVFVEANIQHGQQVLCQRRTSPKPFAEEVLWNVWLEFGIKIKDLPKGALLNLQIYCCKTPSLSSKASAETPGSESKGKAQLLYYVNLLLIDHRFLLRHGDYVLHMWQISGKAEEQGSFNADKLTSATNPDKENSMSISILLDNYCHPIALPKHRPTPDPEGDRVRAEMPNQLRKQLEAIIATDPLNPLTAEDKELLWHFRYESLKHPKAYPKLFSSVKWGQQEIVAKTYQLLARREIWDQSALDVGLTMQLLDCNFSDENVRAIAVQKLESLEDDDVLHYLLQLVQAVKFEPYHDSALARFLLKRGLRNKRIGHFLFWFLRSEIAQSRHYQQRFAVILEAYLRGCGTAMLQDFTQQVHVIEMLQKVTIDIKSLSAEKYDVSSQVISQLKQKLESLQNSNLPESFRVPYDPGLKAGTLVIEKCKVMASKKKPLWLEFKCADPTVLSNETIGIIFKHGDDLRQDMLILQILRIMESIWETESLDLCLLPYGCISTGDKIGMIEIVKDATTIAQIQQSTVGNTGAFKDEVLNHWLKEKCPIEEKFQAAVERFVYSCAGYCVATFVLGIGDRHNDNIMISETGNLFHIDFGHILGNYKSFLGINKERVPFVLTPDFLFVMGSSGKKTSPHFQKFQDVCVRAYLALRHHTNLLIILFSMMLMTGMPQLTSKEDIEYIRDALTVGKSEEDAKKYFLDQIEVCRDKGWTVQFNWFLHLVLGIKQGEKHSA

# example entries with known answers
Cc1nn(C)cc1C#Cc1cccc2cc([C@H](C)NC(=O)c3c(N)nn4cccnc34)n(-c3ccccc3)c(=O)c12 [Compound 19] ... 1 to 50 nM
C[C@H](NC(=O)c1c(N)nn2cccnc12)c1cc2cccc(NC(=O)c3cnn(C)c3)c2c(=O)n1-c1ccccc1 [Compound 90] ... 100 to 10000 nM
C[C@H](NC(=O)c1c(N)nn2cccnc12)c1cc2cccc(C#Cc3cnc[nH]3)c2c(=O)n1-c1ccccc1 [Compound 43] ... 1 to 50 nM

Field: next compound
Please tell me: IC50 of C[C@H](NC(=O)c1cncc2cccnc12)c1cc2cccc(C#Cc3cnn(C)c3)c2c(=O)n1-c1ccccc1 [Compound 42] , system PI3K-γ in RAW264.7 macrophages (Mus musculus (Mouse), UniProt Q9JHG7)? 1 to 50 nM

====

pIC50: −log10 of the molar value.
The following molecules each carry a recorded pIC50 for PI3K α (Homo sapiens (Human)).

# example entries with known answers
C[C@H](NC(=O)c1c(N)nn2cccnc12)c1cc2ccc3ccccc3c2c(=O)n1-c1ccccc1 ... 5.00 to 5.30
C[C@H](NC(=O)c1c(N)nn2cccnc12)c1cc2cccc(C#Cc3cncn3C)c2c(=O)n1-c1ccccc1 ... 5.00 to 5.30
C[C@H](O)C#Cc1cccc2cc([C@H](C)NC(=O)c3c(N)nn4cccnc34)n(-c3ccccc3)c(=O)c12 ... 5.00 to 5.30

Please tell me: pIC50 of Cc1c(C#Cc2cccc3cc([C@H](C)NC(=O)c4c(N)nn5cccnc45)n(-c4ccccc4)c(=O)c23)cnn1C , system PI3K α (Homo sapiens (Human))? 5.00 to 5.30

Please tell me: pIC50 of C[C@H](NC(=O)c1c(N)nn2cccnc12)c1cc2cccc(C#Cc3cncs3)c2c(=O)n1-c1ccccc1 , system PI3K α (Homo sapiens (Human))? 5.00 to 5.30

Please tell me: pIC50 of C[C@H](NC(=O)c1c(N)nn2cccnc12)c1cc2cccc(C#CC3CC3)c2c(=O)n1-c1ccccc1 , system PI3K α (Homo sapiens (Human))? 5.30 to 6.00

Please tell me: pIC50 of Cc1cnc(C(=O)N[C@@H](C)c2cc3cccc(C#Cc4cnn(C)c4)c3c(=O)n2-c2ccccc2)c(N)n1 , system PI3K α (Homo sapiens (Human))? 5.00 to 5.30

Please tell me: pIC50 of C[C@H](NC(=O)c1c(N)nn2cccnc12)c1cc2cccc(C#Cc3cncn3C)c2c(=O)n1C1CC1 , system PI3K α (Homo sapiens (Human))? 5.30 to 6.00

Please tell me: pIC50 of C#Cc1cccc2nc([C@H](C)NC(=O)c3c(N)nn4cccnc34)n(-c3ccccc3)c(=O)c12 , system PI3K α (Homo sapiens (Human))? 5.00 to 5.30

Please tell me: pIC50 of CC#Cc1cccc2cc(C(C)NC(=O)c3c(N)nn4cccnc34)c(-c3ccccc3)nc12 (centres unmarked) , system PI3K α (Homo sapiens (Human))? 5.00 to 5.30

Please tell me: pIC50 of Cc1ccncc1C#Cc1cccc2cc([C@H](C)NC(=O)c3c(N)nn4cccnc34)n(-c3ccccc3)c(=O)c12 , system PI3K α (Homo sapiens (Human))? 5.00 to 5.30

====

Assay: Mouse pharmacokinetics, oral single and repeat dose
Format: in vivo
Conditions: mouse, plasma; female C57 mice, 15 mg/kg PO NMP
Description: Animals were weighed daily prior to dosing. […] On subsequent dosing days, the animals' condition was noted prior to dosing; the animals were observed within 4 hours of dosing, and at the end of the day. Samples were collected at pre-dose 0.25, 0.5, 1, 2, 4, 6 and 24 h following the first dose on day 1 and pre-dose (trough), 0.25, 0.5, 1, 2, 4, 6 and 24 h following the final dose on day 3 Animals received a single oral dose daily for 3 consecutive days. […]
readout_kind: AUC(0-inf)

I'd like to know its AUC(0-inf). The compound in question is Cc1c(C#Cc2cccc3nc([C@H](C)NC(=O)c4c(N)nn5cccnc45)n(-c4ccccc4)c(=O)c23)cnn1C 81200 ng·h/mL

====

pIC50: −log10 of the molar value.
The following compounds each carry a recorded pIC50 for PI3K α (Homo sapiens (Human)).

# example entries with known answers
C[C@H](NC(=O)c1c(N)nn2cccnc12)c1cc2cccc(C#CC3CC3)c2c(=O)n1C1CC1 [Compound 24] ... 5.30 to 6.00
Cc1ncc(C#Cc2cccc3cc([C@H](C)NC(=O)c4c(N)nn5cccnc45)n(-c4ccccc4)c(=O)c23)n1C [Compound 38] ... 5.00 to 5.30
C[C@H](NC(=O)c1c(N)nn2cccnc12)c1cc2cccc(C#Cc3cnn(C)c3)c2c(=O)n1C1CC1 [Compound 25] ... 5.30 to 6.00
Cc1c(C#Cc2cccc3nc([C@H](C)NC(=O)c4c(N)nn5cccnc45)n(-c4ccccc4)c(=O)c23)cnn1C [Compound 88] ... 5.00 to 5.30
Cc1ccc(-n2c([C@H](C)NC(=O)c3c(N)nn4cccnc34)cc3cccc(C#Cc4cnn(C)c4)c3c2=O)cc1 [Compound 98] ... 5.00 to 5.30

I'd like to know its pIC50. The compound in question is Cc1ncc(C#Cc2cccc3cc([C@H](C)NC(=O)c4c(N)nn5cccnc45)n(-c4ccccc4)c(=O)c23)s1 [Compound 76] 5.00 to 5.30

I'd like to know its pIC50. The compound in question is C[C@H](NC(=O)c1c(N)nn2cccnc12)c1cc2cccc(C#Cc3cocn3)c2c(=O)n1-c1ccccc1 [Compound 66] 5.00 to 5.30

====

assay: Mouse pharmacokinetics, oral single and repeat dose; format: in vivo; settings: mouse, plasma; female C57 mice, 7.5 mg/kg PO NMP
readout_kind: Cmax (ng/mL)
Number only, in ng/mL; omit the unit.

I'd like to know its Cmax. The molecule in question is Cc1c(C#Cc2cccc3nc([C@H](C)NC(=O)c4c(N)nn5cccnc45)n(-c4ccccc4)c(=O)c23)cnn1C 3700

====

test: Metabolic stability (microsome stability assay); format: in vitro ADME; conditions: liver microsomes; microsomes, all species (incl rat)
readout_kind: half-life at 20 µM

I'd like to know its half-life at 20 µM. The molecule in question is C[C@H](NC(=O)c1c(N)nn2cccnc12)c1cc2cccc(C#Cc3cnn(C)c3)c2c(=O)n1-c1ccccc1 > 2 h

====

Items are presented alongside their recorded pIC50.
target: PI3K-δ in RAJI cells (Homo sapiens (Human), UniProt O00329); assay: RAJI p110 δ assay (PI3K-δ selective cellular assay, phospho-AKT); assay type: cell-based; conditions: phospho-AKT; read-out: RAJI p110 δ assay IC50
Sequence (O00329 whole entry): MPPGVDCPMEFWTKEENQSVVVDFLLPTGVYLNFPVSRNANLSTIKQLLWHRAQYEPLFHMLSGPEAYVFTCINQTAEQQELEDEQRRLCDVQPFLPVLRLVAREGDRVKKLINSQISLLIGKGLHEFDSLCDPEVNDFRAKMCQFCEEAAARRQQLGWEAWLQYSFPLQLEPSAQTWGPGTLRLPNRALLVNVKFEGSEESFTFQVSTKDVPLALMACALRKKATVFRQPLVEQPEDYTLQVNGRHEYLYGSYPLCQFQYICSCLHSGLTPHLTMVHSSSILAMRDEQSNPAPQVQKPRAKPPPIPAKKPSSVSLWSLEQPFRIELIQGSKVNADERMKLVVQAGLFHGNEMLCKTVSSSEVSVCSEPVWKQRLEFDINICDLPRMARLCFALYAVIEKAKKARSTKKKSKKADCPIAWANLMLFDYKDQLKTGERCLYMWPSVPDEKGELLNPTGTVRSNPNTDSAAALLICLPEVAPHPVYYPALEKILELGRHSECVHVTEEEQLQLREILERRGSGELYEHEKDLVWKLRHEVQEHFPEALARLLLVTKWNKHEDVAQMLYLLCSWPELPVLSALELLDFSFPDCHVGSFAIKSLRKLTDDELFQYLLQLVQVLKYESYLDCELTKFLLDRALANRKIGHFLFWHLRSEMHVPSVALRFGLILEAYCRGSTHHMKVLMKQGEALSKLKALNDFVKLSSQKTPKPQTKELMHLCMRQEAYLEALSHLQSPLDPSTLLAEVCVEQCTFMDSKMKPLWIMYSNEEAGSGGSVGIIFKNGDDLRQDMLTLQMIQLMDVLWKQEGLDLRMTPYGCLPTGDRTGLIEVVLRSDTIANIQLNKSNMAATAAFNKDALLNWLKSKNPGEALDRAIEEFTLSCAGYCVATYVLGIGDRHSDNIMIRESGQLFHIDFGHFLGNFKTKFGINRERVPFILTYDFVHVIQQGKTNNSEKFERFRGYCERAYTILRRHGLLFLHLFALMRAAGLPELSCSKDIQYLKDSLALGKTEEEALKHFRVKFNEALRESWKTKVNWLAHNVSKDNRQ
Sequence (P27986 whole entry partner): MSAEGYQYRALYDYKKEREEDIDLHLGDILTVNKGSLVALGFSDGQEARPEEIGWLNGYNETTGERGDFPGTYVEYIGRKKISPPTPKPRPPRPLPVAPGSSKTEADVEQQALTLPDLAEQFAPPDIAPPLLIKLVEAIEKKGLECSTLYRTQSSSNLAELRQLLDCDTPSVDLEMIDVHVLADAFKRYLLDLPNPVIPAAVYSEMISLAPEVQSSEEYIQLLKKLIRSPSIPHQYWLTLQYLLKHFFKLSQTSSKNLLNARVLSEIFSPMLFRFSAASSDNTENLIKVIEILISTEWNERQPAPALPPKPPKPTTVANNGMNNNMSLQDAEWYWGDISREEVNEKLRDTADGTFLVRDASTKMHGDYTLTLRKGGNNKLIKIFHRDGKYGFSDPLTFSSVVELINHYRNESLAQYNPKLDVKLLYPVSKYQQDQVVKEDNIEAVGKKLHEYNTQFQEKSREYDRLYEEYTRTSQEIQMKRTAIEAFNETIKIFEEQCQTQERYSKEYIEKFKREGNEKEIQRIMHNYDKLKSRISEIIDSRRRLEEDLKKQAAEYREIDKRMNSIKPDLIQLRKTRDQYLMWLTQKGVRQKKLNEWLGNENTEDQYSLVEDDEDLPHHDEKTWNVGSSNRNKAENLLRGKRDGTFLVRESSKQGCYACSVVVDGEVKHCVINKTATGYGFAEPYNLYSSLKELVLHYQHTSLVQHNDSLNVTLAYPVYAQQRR
pIC50: −log10 of the molar value.

CC(=O)N1CCC(C#Cc2cccc3cc([C@H](C)NC(=O)c4c(N)nn5cccnc45)n(-c4ccccc4)c(=O)c23)CC1 [Compound 82] ... 6.00 to 6.30

I'd like to know its pIC50. The compound in question is C[C@H](NC(=O)c1c(N)nn2cccnc12)c1cc2cccc(C#CC3CCCCC3)c2c(=O)n1-c1ccccc1 [Compound 65] 5.00 to 6.00

I'd like to know its pIC50. The compound in question is Cc1nn(C)c(C)c1C#Cc1cccc2cc([C@H](C)NC(=O)c3c(N)nn4cccnc34)n(-c3ccccc3)c(=O)c12 [Compound 37] 5.00 to 6.00

I'd like to know its pIC50. The compound in question is C[C@H](NC(=O)c1c(N)nn2cccnc12)c1nc2cccc(C#Cc3cnn(C)c3)c2c(=O)n1-c1ccccc1 [Compound 21] 6.30 to 7.00

I'd like to know its pIC50. The compound in question is Cc1ccncc1C#Cc1cccc2cc([C@H](C)NC(=O)c3c(N)nn4cccnc34)n(-c3ccccc3)c(=O)c12 [Compound 61] 5.00 to 6.00

I'd like to know its pIC50. The compound in question is C[C@H](NC(=O)c1c(N)nn2cccnc12)c1cc2cccc(CC(=O)c3cnn(C)c3)c2c(=O)n1-c1ccccc1 [Compound 91] 6.30 to 7.00

I'd like to know its pIC50. The compound in question is C[C@H](NC(=O)c1c(N)nn2cccnc12)c1cc2cccc(C#Cc3cccnc3)c2c(=O)n1-c1ccccc1 [Compound 17] 6.30 to 7.00

I'd like to know its pIC50. The compound in question is C[C@H](NC(=O)c1c(N)nn2cccnc12)c1cc2cccc(C#Cc3nccs3)c2c(=O)n1-c1ccccc1 [Compound 59] 6.30 to 7.00

I'd like to know its pIC50. The compound in question is COc1ncc(C#Cc2cccc3cc([C@H](C)NC(=O)c4c(N)nn5cccnc45)n(-c4ccccc4)c(=O)c23)cn1 [Compound 18] 6.30 to 7.00

I'd like to know its pIC50. The compound in question is Cc1c(C#Cc2cccc3cc([C@H](C)NC(=O)c4c(N)nn5cccnc45)n(-c4ccccc4)c(=O)c23)cnn1C [Compound 35] 6.00 to 6.30
